# Assay protocol: Solubility in PBS
# Format: physicochemical
Field: Solubility. Provide a value for each of the compounds that follow.
Provide a numeric answer, followed by its unit.

Prompt line: Given CC(=O)N1CCC[C@]12CC=CCCCC1(CCCC=CCCCCCC[C@@](C)(C(=O)N[C@@H](Cc3ccccc3)C(=O)N[C@@H](Cc3csc4ccccc34)C(=O)N[C@@H](CCC(N)=O)C(N)=O)NC(=O)[C@H](C)NC(=O)[C@H](Cc3c[nH]cn3)NC(=O)[C@H](C)NC(=O)[C@H](C)NC(=O)[C@H](CC(=O)O)NC(=O)[C@H](CC(=O)O)NC1=O)NC(=O)[C@H](C)NC(=O)[C@H](CC(=O)O)NC2=O (some centres unmarked) [I-363] , state its recorded Solubility.
Response line: 32 µM

Prompt line: Given CC[C@H](C)[C@@H]1NC(=O)[C@H](CC(=O)O)NC(=O)[C@]2(CC=CCCCC3(CCCC=CCCCCCC[C@@](C)(C(=O)N[C@@H](Cc4ccccc4)C(=O)N[C@@H](Cc4csc5ccccc45)C(=O)N[C@@H](CCC(N)=O)C(N)=O)NC(=O)[C@H](CCC(N)=O)NC(=O)[C@H](Cc4ccccc4)NC(=O)[C@H](C)NC(=O)[C@H](Cc4ccccc4)NC(=O)[C@H](CCC(=O)O)NC(=O)[C@H](CC(=O)O)NC3=O)NC1=O)CCCN2C(C)=O (some centres unmarked) [I-650] , state its recorded Solubility.
Response line: 45 µM

Prompt line: Given CC(=O)N1CCC[C@]12CC=CCCCC1(CCCC=CCCCOC(=O)N3CC[C@@](C(=O)N[C@@H](Cc4ccccc4Cl)C(=O)N[C@@H](Cc4csc5ccccc45)C(=O)N[C@H](CO)[C@@H](C)O)(C3)NC(=O)[C@H](Cc3ccccc3)NC(=O)[C@H](Cc3ccccc3)NC(=O)[C@H](C)NC(=O)[C@H](C)NC(=O)[C@H](Cc3cccc(C(=O)O)c3)NC(=O)[C@H](CC(=O)O)NC1=O)NC(=O)[C@H](CC(C)(C)C)NC(=O)[C@H](CC(=O)O)NC2=O (some centres unmarked) [I-1340] , state its recorded Solubility.
Response line: 10 µM

Prompt line: Given CC(=O)N1CCC[C@]12CC=CCCCC1(CCCC=CCCCCOC(=O)N3CC[C@@](C(=O)N[C@@H](Cc4ccsc4)C(=O)N[C@@H](Cc4csc5ccccc45)C(=O)N[C@@H](CCC(N)=O)C(=O)N[C@@H](C)C(N)=O)(C3)NC(=O)[C@H](CC(N)=O)NC(=O)[C@H](Cc3ccccc3)NC(=O)[C@H](C)NC(=O)[C@H](C)NC(=O)[C@H](CC(=O)O)NC(=O)[C@H](CC(=O)O)NC1=O)NC(=O)[C@H](CC(C)(C)C)NC(=O)[C@H](CC(=O)O)NC2=O (some centres unmarked) [I-826] , state its recorded Solubility.
Response line: 30 µM

Prompt line: Given CC(=O)N1CCC[C@]12CC=CCCCC1(CCCC=CCCCOC(=O)N3CC[C@@](C(=O)N[C@@H](Cc4ccccc4Cl)C(=O)N[C@@H](Cc4csc5ccccc45)C(=O)N[C@@H](CO)C(N)=O)(C3)NC(=O)[C@H]([C@@H](C)O)NC(=O)[C@H](Cc3ccccc3)NC(=O)[C@H](C)NC(=O)[C@H](C)NC(=O)[C@H](CC(N)=O)NC(=O)[C@H](CC(=O)O)NC1=O)NC(=O)[C@H](CC(C)(C)C)NC(=O)[C@H](CC(=O)O)NC2=O (some centres unmarked) [I-1016] , state its recorded Solubility.
Response line: 10 µM
